- Test system: ATP;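 note: ATP exposure 15 min at 22 °C before imaging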
- ASSAY_INFO: switch fluorescence ratio, 500 uM ATP over buffer (Cy3 cluster intensity, sum of 5 cycles each) (fold (ratio)); higher = stronger signal-on switching upon ATP binding; sequences stand for … in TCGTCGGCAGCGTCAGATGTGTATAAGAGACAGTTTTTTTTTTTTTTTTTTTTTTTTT…TC
- MEASUREMENT_PARAMETERS: aptamer strand: ATP DNA aptamer (quencher-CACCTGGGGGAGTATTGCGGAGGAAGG + anchor), 100 nM annealed; ATP concentration: 500 uM
OBSERVATION_TYPE: switch fluorescence ratio
# output: bare number, no unit

// below: answered sequences
Entry AAGCTTTTCA , switch fluorescence ratio reported as 1.03

Memo: TGCATTTGGA , reported switch fluorescence ratio: 0.978

switch fluorescence ratio for AATGATGCTT is 1

GCTGTATGGC has a reported switch fluorescence ratio of 1.01

Value of measured switch fluorescence ratio for the entry TTCCTAAATT : 0.998

Reported switch fluorescence ratio of GACGAAAATC : 1.2

---
Recorded result, GAGTGTTCAG , switch fluorescence ratio: 0.997

Looking up GGTCTTCATT , I see its switch fluorescence ratio listed as 0.963

====

Property: switch fluorescence ratio; scope: individual sequences
- Tested on: ATP;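 note: ATP exposure 15 min at 22 °C before imaging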
- ASSAY_INFO: switch fluorescence ratio, 500 uM ATP over buffer (Cy3 cluster intensity, sum of 5 cycles each) (fold (ratio)); higher = stronger signal-on switching upon ATP binding; sequences stand for … in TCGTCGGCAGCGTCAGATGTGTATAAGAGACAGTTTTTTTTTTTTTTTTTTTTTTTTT…TC
- MEASUREMENT_PARAMETERS: aptamer strand: ATP DNA aptamer (quencher-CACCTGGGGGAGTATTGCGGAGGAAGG + anchor), 100 nM annealed; ATP concentration: 500 uM

Record summary for AGAATGGAGA : reported switch fluorescence ratio = 1

More entries:
Sure, the documented switch fluorescence ratio for ACCAGGCTTG is 1.02

Entry under test: ACAGACAGCG . Its switch fluorescence ratio was 1.06

So for CTGTTGTGGG , the logged switch fluorescence ratio turned out to be 0.989

Per the record, ATTCTTTACA has switch fluorescence ratio of 1.06

The sequence listed as ATAGTGGTTT shows switch fluorescence ratio equal to 1.02

In plain terms, GTCCTTATTT has a documented switch fluorescence ratio of 1.08

Per the record, GTTGGTGGGT has switch fluorescence ratio of 0.98

Value of measured switch fluorescence ratio for the entry AATCGTTGGG : 0.955

// recorded switch fluorescence ratio for GAAAGCCCGT : 0.989

Recorded switch fluorescence ratio (sequence CTAGGGGGGA ): 0.997

The measured switch fluorescence ratio associated with GTTTCGGGGA reads 1

The recorded switch fluorescence ratio for entry GCAGGAGATT equals 1.01

GET /value?item= CATTTCACGC &field=switch fluorescence ratio returns 1.1

Entry GGCTTGCTAG , switch fluorescence ratio reported as 1

Record AATTTGATGC , field switch fluorescence ratio: 0.985

So for AGTATGAGGG , the logged switch fluorescence ratio turned out to be 1

Lab book: switch fluorescence ratio of GACATATGGG noted as 0.967

Lab note: TTATGAAGAT gave switch fluorescence ratio of 0.963

GET /value?item= TTCGTGATTT &field=switch fluorescence ratio returns 1.02

These entries and their values trace back to the supplement of paper PMC10126150.
